Molecular target: T1, hAIPL1 1–316 lacking the proline-rich domain, His6-tagged (human, UniProt Q9NZN9 1-316)
T1 sequence (looked up): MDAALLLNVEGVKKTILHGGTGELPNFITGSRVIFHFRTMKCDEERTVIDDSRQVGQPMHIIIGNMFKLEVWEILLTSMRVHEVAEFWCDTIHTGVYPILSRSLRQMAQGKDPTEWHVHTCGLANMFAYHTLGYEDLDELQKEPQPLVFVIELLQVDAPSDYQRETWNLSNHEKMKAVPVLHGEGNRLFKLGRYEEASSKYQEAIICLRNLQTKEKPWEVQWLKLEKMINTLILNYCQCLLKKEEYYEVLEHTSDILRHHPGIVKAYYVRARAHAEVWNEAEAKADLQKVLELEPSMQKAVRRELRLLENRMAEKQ
Test: FRET or BRET
No end group written: not given here. *: point of attachment. Farnesyl = CC(C)=CCC/C(C)=C/CC/C(C)=C/C*
observed.property: Kd
State the result as a value with its unit after it.

Exercise: Give the measured Kd of GAPASKSC(Farnesyl) (also: Cys carboxymethylated, AMCA-X conjugated) [AMCA-labeled C-terminal peptide of mouse PDE6A, S-farnesylated and carboxymethylated] .
Key: 240 nM
